Would you kindly list aptazyme ON/OFF ratio for each of these variants?
B1: Pistol ribozyme (parent)
chain: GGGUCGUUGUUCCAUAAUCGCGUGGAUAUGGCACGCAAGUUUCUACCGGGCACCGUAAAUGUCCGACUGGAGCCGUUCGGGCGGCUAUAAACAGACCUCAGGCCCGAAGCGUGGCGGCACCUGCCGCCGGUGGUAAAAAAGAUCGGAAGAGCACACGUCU

variants of: B1; test: aptazyme ON/OFF ratio, guanine; higher = stronger switching; co-transcriptional cleavage with and without guanine
Reply with just the number.

// field: aptazyme ON/OFF ratio; key: U7A U8A G9U U10A U11A ; value = 1.44

// field: aptazyme ON/OFF ratio; key: U8G G9C C12A ; value = 1.07

// field: aptazyme ON/OFF ratio; key: U7C U8C G9A U11G C12A ; value = 1.37

// field: aptazyme ON/OFF ratio; key: U7G U8G G9U U10A U11C C12U C13G ; value = 1.08

// field: aptazyme ON/OFF ratio; key: U7A U10A U11C C12G C13A ; value = 1.08

// field: aptazyme ON/OFF ratio; key: U7A U8A C12G ; value = 1.41

// field: aptazyme ON/OFF ratio; key: U7G U8G G9A U11G C13A ; value = 1.26

// field: aptazyme ON/OFF ratio; key: U7G U8C G9U U10C U11G C12A C13U ; value = 1.25

// field: aptazyme ON/OFF ratio; key: U7A U8G U10G U11G C12U C13A ; value = 1.31

// field: aptazyme ON/OFF ratio; key: U7C U8C G9C U10A C12U C13U ; value = 1.11

// field: aptazyme ON/OFF ratio; key: U7A G9U U10G U11G C12G ; value = 1.43

// field: aptazyme ON/OFF ratio; key: G9U U11C C13G ; value = 1.06

// field: aptazyme ON/OFF ratio; key: U8C G9C U11C C12U C13G ; value = 1.02

// field: aptazyme ON/OFF ratio; key: U7A U8A G9U U10G U11A ; value = 1.03

// field: aptazyme ON/OFF ratio; key: U8A G9A U10C U11G C12A C13U ; value = 1.17

// field: aptazyme ON/OFF ratio; key: U7A U8G G9U U10A U11G C12A C13U ; value = 1.19

// field: aptazyme ON/OFF ratio; key: U7G U10A C13U ; value = 1.16

// field: aptazyme ON/OFF ratio; key: U7A U8A U10G C13U ; value = 1.22

// field: aptazyme ON/OFF ratio; key: U8C G9C U10G U11C C12G ; value = 1.21

// field: aptazyme ON/OFF ratio; key: U7C G9A U10G U11C C12U C13G ; value = 1.09

// field: aptazyme ON/OFF ratio; key: U7G U8C U10A U11C C12G C13G ; value = 1.06

// field: aptazyme ON/OFF ratio; key: U7A G9C U10G U11A C12G ; value = 1.06

// field: aptazyme ON/OFF ratio; key: U7A G9U U10C U11A C12U ; value = 1.23

// field: aptazyme ON/OFF ratio; key: U7A G9U U11A C12A C13A ; value = 1.39

// field: aptazyme ON/OFF ratio; key: U7A U8C G9U U10C C12A C13A ; value = 1.14

// field: aptazyme ON/OFF ratio; key: U7C G9C U10C U11G C12G C13A ; value = 1.11

// field: aptazyme ON/OFF ratio; key: U8A G9C U10C U11A C12U C13U ; value = 1.13

// field: aptazyme ON/OFF ratio; key: U7A U8G G9U C12A C13A ; value = 1.28

// field: aptazyme ON/OFF ratio; key: U7C U8A G9C U11A C12U ; value = 1.15

// field: aptazyme ON/OFF ratio; key: U7G U8C C12U C13A ; value = 1.05

// field: aptazyme ON/OFF ratio; key: U7C U8C U10C C12A ; value = 1.39

// field: aptazyme ON/OFF ratio; key: U7A U8G G9C U10C U11A C12G ; value = 1.23

// field: aptazyme ON/OFF ratio; key: U7A U10G U11G C12A C13A ; value = 1.19

// field: aptazyme ON/OFF ratio; key: U7A U8G G9A U11A C13G ; value = 1.21

// field: aptazyme ON/OFF ratio; key: U7G U10C U11C C12A C13G ; value = 1.08

// field: aptazyme ON/OFF ratio; key: U7A U8G G9A U10A U11A C12U C13A ; value = 1.2

// field: aptazyme ON/OFF ratio; key: U7A U8G G9C U10G C12U ; value = 1.44

// field: aptazyme ON/OFF ratio; key: U8C G9U U10A C13U ; value = 1.37

// field: aptazyme ON/OFF ratio; key: U7C U8C G9A U10C U11C C12A ; value = 1.25

// field: aptazyme ON/OFF ratio; key: U7C U8G G9U U10A C13G ; value = 1.08

// field: aptazyme ON/OFF ratio; key: U7A G9C U11A ; value = 1.11

// field: aptazyme ON/OFF ratio; key: U7G U8C G9C U10G U11C C13U ; value = 1.34

// field: aptazyme ON/OFF ratio; key: U7G U8A G9U U11G C13U ; value = 1.07

// field: aptazyme ON/OFF ratio; key: G9U U10C U11C C12A C13A ; value = 1.15

// field: aptazyme ON/OFF ratio; key: U7G G9U U10C U11A C13U ; value = 1.36

// field: aptazyme ON/OFF ratio; key: U7G U11C C12U C13U ; value = 1.19

Origin of values: the RNAGym collection of RNA variant scans (doi:10.1021/acssynbio.7b00057)
